# target_entity: UniProtKB Q9Y5Y9
# Sequence (Q9Y5Y9 126-399 limits assumed): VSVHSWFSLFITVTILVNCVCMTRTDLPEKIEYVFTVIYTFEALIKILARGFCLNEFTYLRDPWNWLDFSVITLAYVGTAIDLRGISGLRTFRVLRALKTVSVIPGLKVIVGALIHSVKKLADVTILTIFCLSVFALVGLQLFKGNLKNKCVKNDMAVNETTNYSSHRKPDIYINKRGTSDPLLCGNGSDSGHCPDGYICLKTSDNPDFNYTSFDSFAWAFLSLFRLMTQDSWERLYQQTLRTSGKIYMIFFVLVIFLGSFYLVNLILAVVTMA
# Sequence (Q9Y5Y9 660-890 limits assumed): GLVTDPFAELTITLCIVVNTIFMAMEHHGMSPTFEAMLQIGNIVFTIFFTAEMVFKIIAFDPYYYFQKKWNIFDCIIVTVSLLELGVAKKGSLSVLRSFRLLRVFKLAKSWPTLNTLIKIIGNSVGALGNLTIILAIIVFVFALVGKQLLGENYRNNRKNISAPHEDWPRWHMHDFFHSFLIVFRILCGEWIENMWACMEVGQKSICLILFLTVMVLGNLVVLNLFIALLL
# Sequence (Q9Y5Y9 1148-1722 limits assumed): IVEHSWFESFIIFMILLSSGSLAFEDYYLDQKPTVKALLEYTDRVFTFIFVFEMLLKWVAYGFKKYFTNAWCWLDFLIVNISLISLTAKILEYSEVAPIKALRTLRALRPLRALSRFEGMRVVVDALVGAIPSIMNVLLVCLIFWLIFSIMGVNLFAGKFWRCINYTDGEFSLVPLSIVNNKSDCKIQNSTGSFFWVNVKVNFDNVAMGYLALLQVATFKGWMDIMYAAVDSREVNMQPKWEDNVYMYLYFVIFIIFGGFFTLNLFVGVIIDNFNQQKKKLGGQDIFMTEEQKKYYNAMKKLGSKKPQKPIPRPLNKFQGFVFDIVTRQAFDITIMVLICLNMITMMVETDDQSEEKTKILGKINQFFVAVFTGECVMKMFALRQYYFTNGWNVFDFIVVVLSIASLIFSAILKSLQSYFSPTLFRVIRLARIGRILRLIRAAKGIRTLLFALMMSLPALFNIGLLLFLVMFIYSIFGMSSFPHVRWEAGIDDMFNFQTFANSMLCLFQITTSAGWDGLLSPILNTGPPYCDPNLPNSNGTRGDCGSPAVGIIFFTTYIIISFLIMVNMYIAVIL
# assay_explanation: E-VIPR assay detecting and measuring Nav inhibition properties
# Type: cell-based
# experimental_context: HEK cells expressing a truncated form of human Nav 1.8; compound numbers without "*" (not marked as run in the presence of human serum); read-out: measured IC50 value in the E-VIPR Assay
quantity: IC50

INSERT INTO assay_data (compound, target_entity, quantity, reported_result) VALUES
  ('CC(COc1c([C@H]2[C@H](C(=O)Nc3ccnc(C(N)=O)c3)O[C@@](C)(C(F)(F)F)[C@H]2C)cccc1C(F)(F)F)=NO', 'UniProtKB Q9Y5Y9', 'IC50', '< 10 nM'),
  ('C[C@H]1[C@@H](c2ccc(F)c(F)c2OC2CCC(O)C2)[C@H](C(=O)Nc2ccnc(C(N)=O)c2)O[C@@]1(C)C(F)(F)F (stereo partly shown)', 'UniProtKB Q9Y5Y9', 'IC50', '< 10 nM'),
  ('COc1c([C@H]2[C@H](C(=O)Nc3nccc(C(=O)N4CCN(C)CC4)n3)O[C@@](C)(C(F)(F)F)[C@H]2C)ccc(F)c1F', 'UniProtKB Q9Y5Y9', 'IC50', '100 to 1000 nM'),
  ('C[C@H]1[C@@H](c2ccc(F)c(F)c2OCCCC#N)[C@H](C(=O)Nc2ccnc(C(N)=O)c2)O[C@@]1(C)C(F)(F)F', 'UniProtKB Q9Y5Y9', 'IC50', '< 10 nM'),
  ('C[C@H]1[C@@H](c2ccc(F)c(F)c2OCCN2CC3CC(C2)O3)[C@H](C(=O)Nc2ccnc(C(N)=O)c2)O[C@@]1(C)C(F)(F)F', 'UniProtKB Q9Y5Y9', 'IC50', '< 10 nM'),
  ('C[C@H]1[C@@H](c2ccc(F)c(F)c2OCCC(C)(C)O)[C@H](C(=O)Nc2ccnc(C(N)=O)c2)O[C@@]1(C)C(F)(F)F', 'UniProtKB Q9Y5Y9', 'IC50', '10 to 100 nM');

Q: Need IC50, item `C[C@H]1[C@@H](c2ccc(F)c(F)c2OCCCN2CC(F)C2)[C@H](C(=O)Nc2ccnc(C(N)=O)c2)O[C@@]1(C)C(F)(F)F`
Result: < 10 nM

Value source: patent US20250213555A1
